measured-target: NAD-dependent protein deacylase sirtuin-5, mitochondrial (Homo sapiens, UniProt Q9NXA8)
Sequence (Q9NXA8 whole entry): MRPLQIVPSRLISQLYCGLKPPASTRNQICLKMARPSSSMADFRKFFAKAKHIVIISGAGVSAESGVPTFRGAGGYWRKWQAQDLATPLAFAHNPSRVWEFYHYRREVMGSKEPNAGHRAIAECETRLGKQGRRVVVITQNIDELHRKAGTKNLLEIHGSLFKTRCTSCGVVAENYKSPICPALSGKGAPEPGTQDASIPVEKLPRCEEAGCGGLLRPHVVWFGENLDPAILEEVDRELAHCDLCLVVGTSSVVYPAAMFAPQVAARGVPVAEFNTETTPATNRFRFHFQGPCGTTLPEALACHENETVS
method: Inhibition of human recombinant N-terminal Strep2-tagged SIRT5 expressed in Escherichia coli BL21 (DE3) using Abz-GVLK(glutaryl)AY(NO2)GV-NH2 as substrate in presence of NAD+ by fluorescence assay
Residues, ends and D or L forms follow the SMILES beside them. *: point of attachment. X46 = CC(C)(C)c1ccc(CS[C@@H](CC(=O)*)C(=O)O)cc1; X15 = CC(C)(C)c1ccc(CS[C@H](CC(=O)*)C(=O)O)cc1; X31 = O=C(O)[C@H](CC(=O)*)Sc1cccc(Cl)c1Cl; Bz = O=C(c1ccccc1)*
recorded-endpoint: pIC50
Friendly reminder that pIC50 comes from taking -log10 of the concentration in mol/L.

[[record]]
compound = "CC(=O)N[C@@H](CCCCNC(=O)C[C@H](Sc1ccc2ccccc2c1)C(=O)O)C(N)=O"
measured_target = "NAD-dependent protein deacylase sirtuin-5, mitochondrial (Homo sapiens, UniProt Q9NXA8)"
observed_measurement = 5.13


Exam item: Fill in: pIC50 of CC(C)C[C@H](NC(=O)[C@@H](NC(=O)CNC(=O)c1ccccc1)C(C)C)C(=O)N[C@@H](CCCCNC(=O)C[C@H](Sc1cccc(Cl)c1Cl)C(=O)O)C(=O)N[C@@H](CCC(=O)O)C(=O)N[C@@H](Cc1ccc(O)cc1)C(=O)NCC(=O)N[C@H](C(N)=O)C(C)C (Bz-GVLK(X31)EYGV-NH2) is ___
Marked response: 6.15

Exam item: How about CC(C)C[C@H](NC(=O)[C@@H](NC(=O)CNC(=O)c1ccccc1)C(C)C)C(=O)N[C@@H](CCCCNC(=O)C[C@H](SCc1ccc(C(C)(C)C)cc1)C(=O)O)C(=O)N[C@@H](CCC(=O)O)C(=O)N[C@@H](Cc1ccc(O)cc1)C(=O)NCC(=O)N[C@H](C(N)=O)C(C)C (Bz-GVLK(X46)EYGV-NH2) ?
Marked response: 6.10

Exam item: # iterate: CC(C)C[C@H](NC(=O)[C@@H](NC(=O)CNC(=O)c1ccccc1)C(C)C)C(=O)N[C@@H](CCCCNC(=O)C[C@@H](SCc1ccc(C(C)(C)C)cc1)C(=O)O)C(=O)N[C@@H](CCC(=O)O)C(=O)N[C@@H](Cc1ccc(O)cc1)C(=O)NCC(=O)N[C@H](C(N)=O)C(C)C (Bz-GVLK(X15)EYGV-NH2)
Marked response: 5.91

----------
measured-target: NAD-dependent protein deacylase sirtuin-5, mitochondrial (Homo sapiens, UniProt Q9NXA8)
method: Inhibition of human recombinant N-terminal Strep2-tagged SIRT5 expressed in Escherichia coli BL21 (DE3) using Abz-GVLK(glutaryl)AY(NO2)GV-NH2 as substrate in presence of NAD+ by fluorescence assay
Residues, ends and D or L forms follow the SMILES beside them. *: point of attachment. X26 = O=C(O)[C@@H](CC(=O)*)SCCc1ccccc1; X7 = O=C(O)C(CC(=O)*)SCCc1ccncc1; Bz = O=C(c1ccccc1)*
Measured pIC50 of individual entries
Note on units: pIC50 is unitless, being -log10 of a concentration expressed in mol/L.

Solved entries:
[[record]]
molecule = "CNC(=O)c1cccc(NC(=O)C[C@H](Sc2ccc3ccccc3c2)C(=O)O)c1"
recorded_endpoint = "pIC50"
observed_measurement = 4.05

[[record]]
molecule = "CC(C)C[C@H](NC(=O)[C@@H](NC(=O)CNC(=O)c1ccccc1)C(C)C)C(=O)N[C@@H](CCCCNC(=O)C[C@@H](SCCc1ccccc1)C(=O)O)C(=O)N[C@@H](CCC(=O)O)C(=O)N[C@@H](Cc1ccc(O)cc1)C(=O)NCC(=O)N[C@H](C(N)=O)C(C)C (Bz-GVLK(X26)EYGV-NH2)"
recorded_endpoint = "pIC50"
observed_measurement = 6.23

[[record]]
molecule = "CC(C)C[C@H](NC(=O)[C@@H](NC(=O)CNC(=O)c1ccccc1)C(C)C)C(=O)N[C@@H](CCCCNC(=O)CC(SCCc1ccncc1)C(=O)O)C(=O)N[C@@H](CCC(=O)O)C(=O)N[C@@H](Cc1ccc(O)cc1)C(=O)NCC(=O)N[C@H](C(N)=O)C(C)C (stereo not given in full) (Bz-GVLK(X7)EYGV-NH2)"
recorded_endpoint = "pIC50"
observed_measurement = 4.88


Exam item: What measured pIC50 is associated with C=CCN1C(=O)/C(=C/c2ccc(-c3cccc(Cl)c3Cl)o2)C(=O)NC1=S on NAD-dependent protein deacylase sirtuin-5, mitochondrial (Homo sapiens, UniProt Q9NXA8)?
Marked response: 4.60
